- system_tested: human FPRL1 (Homo sapiens, UniProt P25090)
- assay_text: Measurement test of agonist activity on human FPRL1 (test of calcium mobilization in cell, HEK293 with human FPRL1 and Gα15 expression vectors)
- condition_details: calcium mobilization in HEK293 cells with human FPRL1 and Gα15 expression vectors
- From the text: Measurement Test of Agonist Activity on Human FPRL1 (1-1) Construction of Human FPRL1 Expression Vector Human FPRL (SEQ ID NO: 3) was amplified in a PCR reaction from cDNA derived from a monocytic leukemia cell line THP-1 (TIB-202, ATCC) as a template using a forward primer shown in SEQ ID NO: 1, a reverse primer shown in SEQ ID NO: 2, and KOD-plus-ver. 2 (KOD-211, TOYOBO CO., LTD.). […]
EC50: recorded values

# molecule, EC50 / nM
measured = [
    ("COc1cc(F)c([C@@H]2CNC(=O)[C@H]2NC(=O)Nc2ccc(OC(F)(F)F)cc2)c(F)c1 (relative stereo) [Example 7-1]", 1.09),
    ("COc1ccc([C@@H]2CN/C(=N\\OCCO)[C@H]2NC(=O)Nc2ccc(F)cc2)cc1 (single isomer, unassigned) [EXAMPLE 32-4]", 0.17),
    ("COc1ccc([C@@H]2CN(CCO)C(=O)[C@H]2NC(=O)Nc2ccc(Cl)cc2)cc1 (single isomer, unassigned) [Example 15-1A]", 0.01),
    ("COc1cc(F)c([C@@H]2CN(C)C(=O)[C@H]2NC(=O)Nc2ccc(Cl)nc2)c(F)c1 (relative stereo) [Example 24-4]", 0.81),
    ("COc1cc(F)c([C@@H]2CN(Cc3ncc(C)o3)C(=O)[C@H]2NC(=O)Nc2ccc(F)cc2)c(F)c1 (single isomer, unassigned) [EXAMPLE 24-17]", 0.02),
    ("CCN1C[C@@H](c2ccc(OC)cc2)[C@H](NC(=O)Nc2ccc(F)cc2)C1=O (relative stereo) [Example 12-1]", 0.13),
]

---

inhibition in vivo at 1 mg/kg: recorded values
- Test system: mouse (BALB/c, male)
- assay_text: Effect of lipopolysaccharide induction on neutrophilic infiltration in mouse lung
- Type: in vivo
- condition_details: 5 h; neutrophil infiltration in BAL fluid, LPS-exposed BALB/c mouse, oral, dose 1 mg/kg; read-out: SUPPRESSION RATIO
quantity_name: inhibition in vivo at 1 mg/kg

# molecule, quantity_name, measured
records = [
    ("COc1cc(F)c([C@@H]2CNC(=O)[C@H]2NC(=O)Nc2ccc(Cl)nc2)c(F)c1 (relative stereo)", "inhibition in vivo at 1 mg/kg", "69.7%"),
    ("COc1cnc([C@@H]2CNC(=O)[C@H]2NC(=O)Nc2ccc(F)cc2)c(F)c1 (single isomer, unassigned)", "inhibition in vivo at 1 mg/kg", "98.3%"),
    ("O=C(Nc1ccc(F)cc1)N[C@@H]1C(=O)NC[C@H]1c1cc2c(cc1F)OCC2 (single isomer, unassigned)", "inhibition in vivo at 1 mg/kg", "95.8%"),
    ("COc1cc(F)c([C@@H]2CNC(=O)[C@H]2NC(=O)Nc2ccc(F)cc2)c(F)c1 (single isomer, unassigned)", "inhibition in vivo at 1 mg/kg", "96.8%"),
]

---

- system_tested: human FPRL1 (Homo sapiens)
- Sequence (P25090 1-351): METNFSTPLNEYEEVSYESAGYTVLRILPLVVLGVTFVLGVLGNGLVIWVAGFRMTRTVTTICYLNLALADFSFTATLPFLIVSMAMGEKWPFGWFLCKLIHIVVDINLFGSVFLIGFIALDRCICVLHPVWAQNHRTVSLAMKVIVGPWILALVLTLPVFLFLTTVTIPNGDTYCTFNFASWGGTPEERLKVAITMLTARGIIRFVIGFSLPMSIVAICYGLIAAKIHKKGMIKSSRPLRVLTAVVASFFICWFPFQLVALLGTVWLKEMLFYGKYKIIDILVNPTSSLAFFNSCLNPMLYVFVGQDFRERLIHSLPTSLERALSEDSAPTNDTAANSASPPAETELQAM
- assay_text: Measurement test of agonist activity on human FPRL1 (test of calcium mobilization in cell, HEK293 with human FPRL1 and Gα15 expression vectors)
- condition_details: calcium mobilization in HEK293 cells with human FPRL1 and Gα15 expression vectors
pEC50: −log10 of the molar value.

# compound, system_tested, pEC50
data = [
    ("COc1cc(F)c([C@@H]2CNC(=O)[C@H]2NC(=O)Nc2ccc(Cl)nc2)c(F)c1 (relative stereo)", "human FPRL1 (Homo sapiens)", 8.57),
    ("COc1cc(F)c([C@@H]2CNC(=O)[C@H]2NC(=O)Nc2ccc(Cl)c(O)c2)c(F)c1 (relative stereo)", "human FPRL1 (Homo sapiens)", 10.30),
    ("O=C(Nc1ccc(F)cc1)N[C@@H]1C(=O)NC[C@H]1c1cc2c(cc1F)OCC2 (single isomer, unassigned)", "human FPRL1 (Homo sapiens)", 9.62),
    ("COc1cc(F)c([C@@H]2CNC(=O)[C@H]2NC(=O)Nc2cc3ccccc3s2)c(F)c1 (relative stereo)", "human FPRL1 (Homo sapiens)", 9.12),
    ("CO/N=C1\\NC[C@@H](c2c(F)cc(OC)cc2F)[C@@H]1NC(=O)Nc1ccc(Cl)nc1 (single isomer, unassigned)", "human FPRL1 (Homo sapiens)", 9.28),
    ("COc1ccc([C@H]2[C@H](NC(=O)Nc3ccc(F)cc3)C(=O)N[C@@H]2C)cc1 (relative stereo)", "human FPRL1 (Homo sapiens)", 9.14),
]

---

- Tested on: mouse (BALB/c, male)
- assay_text: Effect of lipopolysaccharide induction on neutrophilic infiltration in mouse lung
- Assay type: in vivo
- condition_details: 5 h; neutrophil infiltration in BAL fluid, LPS-exposed BALB/c mouse, oral, dose 1 mg/kg; read-out: SUPPRESSION RATIO
inhibition in vivo at 1 mg/kg: recorded values

# compound, inhibition in vivo at 1 mg/kg
data = [
    ("COc1ccc([C@@H]2CN(C)C(=O)[C@H]2NC(=O)Nc2ccc(F)cc2)cc1 (relative stereo)", "96.9%"),
    ("COc1ccc([C@@H]2CNC(=O)[C@H]2NC(=O)Nc2ccc(Cl)cc2)cc1 (single isomer, unassigned)", "99.2%"),
    ("COc1cc(F)c([C@@H]2CN(CCO)C(=O)[C@H]2NC(=O)Nc2ccc(F)cc2)c(F)c1 (single isomer, unassigned)", "99.6%"),
    ("COc1ccc([C@@H]2CNC(=O)C2NC(=O)Nc2ccc(Cl)cc2)cc1 (mixture of isomers)", "78.9%"),
]

---

EC50: recorded values
- system_tested: human FPRL1 (Homo sapiens, UniProt P25090)
- assay_text: Measurement test of agonist activity on human FPRL1 (test of calcium mobilization in cell, HEK293 with human FPRL1 and Gα15 expression vectors)
- condition_details: calcium mobilization in HEK293 cells with human FPRL1 and Gα15 expression vectors
quantity_name: EC50 (nM)

# molecule, measured
measured = [
    ("CNC(=O)C(C)(C)N1C[C@@H](c2ccc(OC)cc2)[C@H](NC(=O)Nc2ccc(F)cc2)C1=O (relative stereo)", 0.09),
    ("O=C(Nc1ccc(F)cc1)N[C@@H]1/C(=N/OCCO)NC[C@H]1c1cc2c(cc1F)OCC2 (single isomer, unassigned)", 0.13),
    ("CCOC(=O)C(C)(C)N1C[C@@H](c2cc3c(cc2F)OCC3)[C@H](NC(=O)Nc2ccc(F)cc2)C1=O (single isomer, unassigned)", 0.45),
    ("COc1cc(F)c([C@@H]2CN(CCO)C(=O)[C@H]2NC(=O)Nc2ccc(F)cc2)c(F)c1 (single isomer, unassigned)", 0.07),
    ("COc1cc(F)c([C@@H]2CNC(=O)[C@H]2NC(=O)Nc2ccc(C(F)(F)F)cc2)c(F)c1 (relative stereo)", 0.92),
    ("CNc1cc(F)c([C@@H]2CNC(=O)[C@H]2NC(=O)Nc2ccc(F)cc2)c(F)c1 (single isomer, unassigned)", 1.42),
]

---

- system_tested: human FPRL1 (Homo sapiens)
- Sequence (P25090 1-351): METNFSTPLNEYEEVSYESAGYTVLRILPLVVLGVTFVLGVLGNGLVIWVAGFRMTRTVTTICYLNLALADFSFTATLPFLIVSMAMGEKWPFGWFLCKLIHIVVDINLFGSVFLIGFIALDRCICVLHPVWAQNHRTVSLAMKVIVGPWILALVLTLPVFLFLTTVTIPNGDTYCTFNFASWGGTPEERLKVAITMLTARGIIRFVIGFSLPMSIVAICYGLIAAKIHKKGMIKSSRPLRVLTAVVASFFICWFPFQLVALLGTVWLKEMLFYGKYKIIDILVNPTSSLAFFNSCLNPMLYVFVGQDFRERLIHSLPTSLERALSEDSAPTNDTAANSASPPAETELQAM
- assay_text: Measurement test of agonist activity on human FPRL1 (test of calcium mobilization in cell, HEK293 with human FPRL1 and Gα15 expression vectors)
- condition_details: calcium mobilization in HEK293 cells with human FPRL1 and Gα15 expression vectors
pEC50: −log10 of the molar value.
pEC50: recorded values

# compound, system_tested, pEC50
data = [
    ("COc1cc(F)c([C@@H]2CN=C(Nc3ccccc3)[C@H]2NC(=O)Nc2ccc(F)cc2)c(F)c1 (relative stereo) [EXAMPLE 32-18]", "human FPRL1 (Homo sapiens)", 9.27),
    ("COc1ccc([C@@H]2[C@H](C)NC(=O)[C@H]2NC(=O)Nc2ccc(F)cc2)cc1 (relative stereo) [Example 1-40]", "human FPRL1 (Homo sapiens)", 8.84),
    ("CCc1ccc(NC(=O)N[C@@H]2C(=O)NC[C@H]2c2c(F)cc(OC)cc2F)cc1 (relative stereo) [Example 7-10]", "human FPRL1 (Homo sapiens)", 8.64),
    ("COc1ccc([C@@H]2CNC(=O)[C@H]2NC(=O)Nc2ccc(F)cc2)s1 (single isomer, unassigned) [EXAMPLE 1-19]", "human FPRL1 (Homo sapiens)", 9.14),
    ("COc1cc(F)c([C@@H]2CNC(=O)[C@H]2NC(=O)Nc2ccc(F)cc2)c(F)c1 (single isomer, unassigned) [EXAMPLE 1-12]", "human FPRL1 (Homo sapiens)", 10.22),
    ("COc1ccc([C@@H]2CN(CCO)C(=O)[C@H]2NC(=O)Nc2ccc(F)cc2)c(F)c1 (single isomer, unassigned) [EXAMPLE 25-1]", "human FPRL1 (Homo sapiens)", 10.40),
    ("COc1cc(F)c([C@@H]2CNC(=O)[C@H]2NC(=O)Nc2ccc(C)c(O)c2)c(F)c1 (relative stereo) [Example 1-68]", "human FPRL1 (Homo sapiens)", 10.10),
    ("NC(=O)c1cc(F)c([C@@H]2CNC(=O)[C@H]2NC(=O)Nc2ccc(F)cc2)c(F)c1 (single isomer, unassigned) [EXAMPLE 31-1]", "human FPRL1 (Homo sapiens)", 8.71),
    ("COc1cc(F)c([C@@H]2CN/C(=N\\O)[C@H]2NC(=O)Nc2ccc(F)cc2)c(F)c1 (single isomer, unassigned) [EXAMPLE 33-2]", "human FPRL1 (Homo sapiens)", 10.52),
    ("COc1ccc([C@@H]2CNC(=O)[C@H]2NC(=O)Nc2ccc(C#N)cc2)cc1 (single isomer, unassigned) [EXAMPLE 1-5]", "human FPRL1 (Homo sapiens)", 8.54),
    ("O=C(Nc1cc2ccccc2s1)N[C@@H]1C(=O)NC[C@H]1c1cc2c(cc1F)OCC2 (relative stereo) [Example 1-85]", "human FPRL1 (Homo sapiens)", 8.46),
    ("COc1cc(F)c([C@@H]2CNC(=O)[C@H]2NC(=O)Nc2ncc(Cl)s2)c(F)c1 (relative stereo) [Example 1-26]", "human FPRL1 (Homo sapiens)", 8.72),
]
